So I've got a bunch of compounds here, and I need their Papp at 18 hours, 50 µM values.
- ASSAY METHOD TEXT: PAMPA (parallel artificial membrane permeability assay)
- Type: in vitro ADME
- CONDITION SUMMARY: PAMPA; membrane permeation rate (Pe); 50 mM MOPSO buffer pH 6.5 with 5.0% glycocholic acid, 37° C., 18 hours; read-out: iPAMPA Pe
Starred links: 1 amine or outer side, 2 acyl side, 3 side chain; linkers in the order of their positions; H or OH if unused. Positions of bridges follow the written chain, without caps; N, C: chain ends. Non-standard residues stand in square brackets, D forms with d. Residues, ends and D or L forms follow the SMILES beside them. *: point of attachment. Lys(Me2) = CN(C)CCCC[C@H](N)C(=O)O; NMeF = CN[C@@H](Cc1ccccc1)C(=O)O; NMeβAla = CN(CCC(=O)[*:2])[*:1]; NMeL = CN[C@@H](CC(C)C)C(=O)O; NMeA = CN[C@@H](C)C(=O)O; Piperidide = C1CCN(*)CC1; Sar = CNCC(=O)O; tBu = CC(C)(C)*
Report as a plain number; the unit ×10⁻⁶ cm/s is understood.

Ask: For the compound shown here, CC(C)C[C@H]1C(=O)N(C)[C@@H](CC(C)C)C(=O)N[C@H](C(=O)N(C)[C@@H](Cc2ccccc2)C(=O)N[C@@H](C)C(=O)N2CCCCC2)CC(=O)N[C@H](C(C)C)C(=O)N(C)[C@@H](C)C(=O)N(C)[C@@H](Cc2ccccc2)C(=O)N(C)[C@@H](C)C(=O)N[C@@H](CCCCN(C)C)C(=O)N(C)CC(=O)N[C@@H](C(C)C)C(=O)N1C [DP-631] ([dV][NMeA][NMeF][NMeA][Lys(Me2)][Sar]V[NMeL][NMeL]D[NMeF]A-Piperidide; lactam N-10) , give the reported Papp at 18 hours, 50 µM.
Result: 1.6

Ask: Consider next the compound CC(C)C[C@@H]1NC(=O)C[C@@H](C(=O)N2CCCCC2)NC(=O)[C@H]([C@@H](C)O)NC(=O)[C@H](CC(C)C)N(C)C(=O)CN(C)C(=O)[C@H](Cc2ccccc2)N(C)C(=O)[C@H](C)N(C)C1=O [DP-745] (L[NMeA][NMeF][Sar][NMeL]TD-Piperidide; lactam N-7) in the same way.
Result: 17

Ask: Consider next the compound CC(C)C[C@H]1C(=O)N(C)[C@@H](CC(C)C)C(=O)N[C@@H]([C@@H](C)O)C(=O)N(C)[C@@H](Cc2ccccc2)C(=O)N[C@@H](COC(C)(C)C)C(=O)N(C)[C@@H](CC(C)C)C(=O)N[C@H](C(=O)N2CCCCC2)CC(=O)N(C)CCC(=O)N1C [DP-705] ([NMeβAla][NMeL][NMeL]T[NMeF]S(tBu)[NMeL]D-Piperidide; lactam N-8) in the same way.
Result: 49

====

So I've got a bunch of compounds here, and I need their microsomal CLint at 1 uM values.
- ASSAY METHOD TEXT: Metabolic stability in human hepatic microsome
- Format: in vitro ADME
- CONDITION SUMMARY: human, microsomes, pH 7.4, CL NADPH(+)
Positions of bridges follow the written chain, without caps; N, C: chain ends. Non-standard residues stand in square brackets, D forms with d. Residues, ends and D or L forms follow the SMILES beside them. *: point of attachment. NMeF = CN[C@@H](Cc1ccccc1)C(=O)O; Aoc(2) = CCCCCC[C@H](N)C(=O)O; NMeL = CN[C@@H](CC(C)C)C(=O)O; NMeV = CN[C@H](C(=O)O)C(C)C; NMeA = CN[C@@H](C)C(=O)O; Piperidide = C1CCN(*)CC1; β3hA = C[C@H](N)CC(=O)O; Sar = CNCC(=O)O; tBu = CC(C)(C)*
Report as a plain number; the unit µL/min/mg is understood.

Ask: For the compound shown here, CC(C)C[C@H]1C(=O)N2CCC[C@H]2C(=O)N(C)[C@@H](CC(C)C)C(=O)N[C@@H](C)C(=O)N(C)[C@@H](C(C)C)C(=O)N[C@@H](C)CC(=O)N(C)[C@@H](C)C(=O)N[C@@H]([C@@H](C)O)C(=O)N(C)CC(=O)N(C)[C@@H](Cc2ccccc2)C(=O)N(C)[C@@H](Cc2ccccc2)C(=O)N1C [DP-768] (cyclo(A[NMeV][β3hA][NMeA]T[Sar][NMeF][NMeF][NMeL]P[NMeL])) , give the reported microsomal CLint at 1 uM.
Result: 34

Ask: Consider next the compound CC[C@H](C)[C@H](NC(=O)[C@@H]1CCCN1C(=O)[C@@H](NC(=O)[C@@H]1CC(=O)N[C@@H](C)C(=O)N[C@@H](CC(C)C)C(=O)N(C)[C@@H](CC(C)C)C(=O)N[C@@H](C)C(=O)N[C@@H](CC(C)C)C(=O)N(C)[C@@H](Cc2ccccc2)C(=O)N[C@@H](Cc2ccccc2)C(=O)N1)[C@@H](C)O)C(=O)N1CCCCC1 [DP-45] (AL[NMeL]AL[NMeF]FDTPI-Piperidide; lactam N-8) in the same way.
Result: 129

Ask: Consider next the compound CC(C)C[C@H]1C(=O)N(C)[C@@H](CC(C)C)C(=O)N[C@H](C(=O)N(C)[C@@H](Cc2ccccc2)C(=O)N[C@@H](C)C(=O)N2CCCCC2)CC(=O)N(C)[C@@H](C)C(=O)N[C@@H](C(C)C)C(=O)N(C)[C@@H](Cc2ccccc2)C(=O)N(C)CC(=O)N[C@@H]([C@@H](C)O)C(=O)N(C)[C@@H](C)C(=O)N1C [DP-310] ([NMeA]V[NMeF][Sar]T[NMeA][NMeL][NMeL]D[NMeF]A-Piperidide; lactam N-9) in the same way.
Result: 143

Ask: Consider next the compound CC[C@H](C)[C@H](NC(=O)[C@H](C)N(C)C(=O)[C@H](CC(C)C)N(C)C(=O)[C@@H](NC(=O)[C@@H]1CC(=O)N(C)[C@@H](C)C(=O)N[C@@H]([C@@H](C)O)C(=O)N(C)[C@@H](Cc2ccccc2)C(=O)N[C@@H](C(C)C)C(=O)N2CCC[C@H]2C(=O)N(C)[C@@H](Cc2ccccc2)C(=O)N[C@@H](CC(C)C)C(=O)N(C)[C@@H](Cc2ccccc2)C(=O)N1)C(C)C)C(=O)N1CCCCC1 [DP-943] ([NMeA]T[NMeF]VP[NMeF]L[NMeF]DV[NMeL][NMeA]I-Piperidide; lactam N-9) in the same way.
Result: 7

Ask: Consider next the compound CCCCCC[C@@H]1NC(=O)[C@H](Cc2ccccc2)N(C)C(=O)[C@H](C)N(C)C(=O)C[C@H](C)NC(=O)[C@H](C(C)C)N(C)C(=O)[C@H](Cc2ccccc2)N(C)C(=O)[C@H](COC(C)(C)C)NC(=O)[C@H](C)N(C)C(=O)CN(C)C(=O)[C@H]([C@@H](C)O)NC(=O)[C@H](CC(C)C)N(C)C1=O [DP-775] (cyclo([Aoc(2)][NMeL]T[Sar][NMeA]S(tBu)[NMeF][NMeV][β3hA][NMeA][NMeF])) in the same way.
Result: 119
